Provenance of the data: ChEMBL document CHEMBL3885861

- Organism: Rattus norvegicus
- Protocol Notes: Open TG-GATES - Regimen: Single
- Assay type: toxicity, organism-based, Sprague-Dawley
- Design: regimen Single, gender Male, age 6 weeks
- Assay Conditions: in vivo, po, 0 mg/kg, 24 h, tissue Plasma, route gavage, dose level Control
Measured Endpoint: GLC (mg/dL)

                                   compound  measured_endpoint  observed_result
0  CC/C(=C(\c1ccccc1)c1ccc(OCCN(C)C)cc1)c1ccccc1                GLC            183.8
1  COc1cc2c(c(OC)c1OC)-c1ccc(OC)c(=O)cc1[C@@H](NC(C)=O)CC2                GLC              203
2  C[C@@H]1C[C@H]2[C@@H]3CCC4=CC(=O)C=C[C@]4(C)[C@@]3(F)[C@@H](O)C[C@]2(C)[C@@]1(O)C(=O)CO                GLC            192.6
3  O=C(CCCN1CCC(O)(c2ccc(Cl)cc2)CC1)c1ccc(F)cc1                GLC            185.4
4       CN1C(=O)CN=C(c2ccccc2)c2cc(Cl)ccc21                GLC            191.2
5                           NNC(=O)c1ccncc1                GLC              191
6  CC(C)OC(=O)C(C)(C)Oc1ccc(C(=O)c2ccc(Cl)cc2)cc1 [FENOFIBRATE]                GLC            186.2
7  COc1ccc2[nH]c([S+]([O-])Cc3ncc(C)c(OC)c3C)nc2c1 (centres undefined)                GLC              216
8  CC1=C(/C=C/C(C)=C/C=C/C(C)=C/CO)C(C)(C)CCC1                GLC            181.6
